Target: NAMPT (human, recombinant, C-terminally His-tagged) (Homo sapiens)
Sequence (P43490 whole entry): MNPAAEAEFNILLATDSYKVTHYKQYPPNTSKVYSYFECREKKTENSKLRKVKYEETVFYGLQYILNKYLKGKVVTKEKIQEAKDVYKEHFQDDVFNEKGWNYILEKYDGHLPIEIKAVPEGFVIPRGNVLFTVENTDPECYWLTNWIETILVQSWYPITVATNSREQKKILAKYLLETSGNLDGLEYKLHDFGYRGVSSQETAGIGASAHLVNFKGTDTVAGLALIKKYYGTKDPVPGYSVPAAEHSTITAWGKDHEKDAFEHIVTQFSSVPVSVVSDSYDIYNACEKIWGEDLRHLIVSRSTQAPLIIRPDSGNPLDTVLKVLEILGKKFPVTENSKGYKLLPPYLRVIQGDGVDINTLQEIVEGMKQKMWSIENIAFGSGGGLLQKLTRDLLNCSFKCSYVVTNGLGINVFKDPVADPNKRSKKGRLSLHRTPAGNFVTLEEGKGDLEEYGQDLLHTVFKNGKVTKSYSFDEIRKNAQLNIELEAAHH
Assay: Time-Resolved Fluorescence Resonance Energy Transfer (TR-FRET) Binding Assay of NAMPT
Conditions: without substrates; 6.8 nM NAMPT, 200 nM probe, 3 hours equilibration
Procedure: Determination of the utility of compounds having Formula (I) as binders to and inhibitors of NAMPT was performed using Time-Resolved Fluorescence Resonance Energy Transfer (TR-FRET) binding assays. Time-Resolved Fluorescence Resonance Energy Transfer (TR-FRET) Binding Assay of NAMPT […]
Entries and their measured log10 of IC50 follow.
readout.name: log10 of IC50 (log10 of the value in nM)

| compound | log10 of IC50 |
| --- | --- |
| CC(C)[C@@H]1COC(=O)N1c1ccc(C(=O)NCc2ccn3ccnc3c2)s1 | 1.31 |
| O=C(NCc1ccn2ccnc2c1)c1ccc(-c2cnn(CC3CCNCC3)c2)s1 | 1.98 |
| CC(C)CC(=O)N(Cc1ccc(C#N)cc1)c1ncc(C(=O)NCc2ccc3nccn3c2)s1 | 2.56 |
| O=C(NCc1ccn2ccnc2c1)c1cnc(C2CCN(S(=O)(=O)c3ccccc3)C2)s1 (centres unmarked) | 3.72 |
| COCCNC(=O)N(C[C@@H]1CCCO1)c1ncc(C(=O)NCc2ccc3nccn3c2)s1 | 3.53 |
| O=C(NCc1ccn2ccnc2c1)c1cnc(N2CC(COCc3ccccc3)OC2=O)s1 (centres unmarked) | 2.09 |
| O=C(NCc1ccn2ccnc2c1)c1ccc(C2CCN(C(=O)c3cc(F)cc(F)c3)C2)s1 (centres unmarked) | 1.45 |
| O=C(NCc1ccn2ccnc2c1)c1ccc(O[C@H]2CCN(C(=O)[C@H]3CCOC3)C2)cc1 | 3.49 |
| O=C(Nc1ccc(C2=CCN(C(=O)C3CCS(=O)(=O)CC3)CC2)cc1)Nc1ccc2nccn2c1 | 2.11 |
| O=C(NCCCCC1CCN(C(=O)C2CCCC2)CC1)Nc1ccc2nccn2c1 | 2.59 |
| Cn1cc(CC(=O)N(C[C@H]2CCCO2)c2ncc(C(=O)NCc3ccn4ccnc4c3)s2)cn1 | 2.33 |
| CC(=O)N1CC=C(c2ccc(C(=O)NCc3ccn4ccnc4c3)s2)CC1 | 1.83 |
| COc1ccccc1C(=O)N1CCC(c2ccc(C(=O)NCc3ccn4ccnc4c3)cc2)CC1 | 1.99 |
| CC(C)CC(=O)N1CC(c2ccc(C(=O)NCc3ccn4ccnc4c3)cc2)C1 | 2.44 |
| CC(C)(C)OC(=O)N1CCC(c2ccc(NC(=O)NCc3ccn4ccnc4c3)cc2)CC1 | 2.07 |
| CCCn1cc(-c2ccc(NC(=O)NCc3ccn4ccnc4c3)cc2)cn1 | 2.16 |
| CC(C)CS(=O)(=O)N1CCC(c2ccc(C(=O)NCc3ccn4ccnc4c3)s2)CC1 | 1.38 |

###

Target: NAMPT (Homo sapiens)
Criterion: IC50 strictly less than 0.4 nM. Met: Y. Not met: N.

| compound | class |
| --- | --- |
| CC(C)S(=O)(=O)N1CCC(c2ccc(C(=O)NCc3ccn4ccnc4c3)cc2)CC1 | N |
| CC(C)OCCNC(=O)c1ccc(NC(=O)Nc2ccc3nccn3c2)cc1 | Y |
| CS(=O)(=O)N1CC(c2ccc(C(=O)NCc3ccn4ccnc4c3)cc2)C1 | N |
| O=C(CC1CCCC1)Nc1ccc(C(=O)NCc2ccc3nccn3c2)cc1 | N |
| O=C(CCC1CCCC1)Nc1ccc(C(=O)NCc2ccn3ccnc3c2)cc1 | Y |
| CCC(=O)N1CCC(c2ccc(C(=O)NCc3ccn4ccnc4c3)s2)C1 (stereo not shown) | Y |
| O=C(NCc1ccn2ccnc2c1)Nc1ccc(OC2CCN(C(=O)C3CCOCC3)CC2)cc1 | Y |
| Cc1cc(C(=O)N2CCC(c3ccc(C(=O)NCc4ccn5ccnc5c4)cc3)CC2)c(C)o1 | Y |
| O=C(Nc1ccc(C(=O)NCC2CCS(=O)(=O)C2)cc1)Nc1ccc2nccn2c1 (stereo not shown) | Y |
| CC(C)(C)OC(=O)N1CCC(c2ccc(C(=O)Nc3ccn4ccnc4c3)cc2)CC1 | N |
| O=C(NCc1ccn2ccnc2c1)c1ccc(C2CCN(C(=O)c3ccco3)C2)cc1 (stereo not shown) | N |
| O=C(NCc1ccn2ccnc2c1)Nc1ccc(C2=CCN(C(=O)C3CCCO3)CC2)cc1F (stereo not shown) | Y |
| O=C(NCc1ccn2ccnc2c1)Nc1ccc(O[C@@H]2CCN(C(=O)c3ccccc3Cl)C2)cc1 | N |
| CC(C)Cn1cc(-c2ccc(C(=O)NCc3cn4ccnc4cn3)s2)cn1 | N |
| CC1(Cn2cc(-c3ccc(C(=O)NCc4ccn5ccnc5c4)s3)cn2)CCCCO1 (stereo not shown) | Y |
| O=C(NCc1ccn2ccnc2c1)c1ccc(C2CCN(C(=O)c3ccccc3F)CC2)o1 | N |
| Cc1cc(CC(=O)N(CC2CCCO2)c2ncc(C(=O)NCc3ccc4nccn4c3)s2)on1 (stereo not shown) | N |
| CS(=O)(=O)CCn1cc(-c2ccc(C(=O)NCc3ccn4ccnc4c3)s2)cn1 | Y |
| CC(C)Cn1nccc1-c1ccc(C(=O)NCc2ccn3ccnc3c2)o1 | N |
| CCCn1cc(-c2ccc(C(=O)NCc3ccn4ccnc4c3)s2)cn1 | Y |
| O=C(NCc1ccn2ccnc2c1)c1cnc(C2CCN(c3ccccc3)CC2)s1 | N |
| CC(C)CCNC(=O)c1ccc(NC(=O)Nc2ccn3ccnc3c2)cc1 | N |
| COc1ccc(C(=O)N2CCC(c3ccc(C(=O)NCc4ccn5ccnc5c4)cc3)CC2)cc1 | Y |
| CC(C)(C)OC(=O)N1CCC(c2ccc(NC(=O)Nc3ccc4nccn4c3)cc2)CC1 | Y |
| O=C(NCc1ccn2ccnc2c1)c1ccc(C2CCN(C(=O)c3cnccn3)CC2)cc1 | N |
| CCCCC(=O)NC1(c2ccc(C(=O)NCc3ccn4ccnc4c3)s2)COC1 | N |
| Cc1cccc(C(=O)N2CC(c3ccc(C(=O)NCc4ccn5ccnc5c4)cc3)C2)c1 | N |
| CC(C)C(=O)n1cc(-c2ccc(C(=O)NCc3ccc4nccn4c3)s2)cn1 | N |
| COC[C@H]1CCCN1C(=O)c1ccc(C(=O)NCc2ccn3ccnc3c2)s1 | Y |
| CC(C)(C)OC(=O)N1CCC(c2ccc(C(=O)Nc3ccc4nccn4c3)cc2)CC1 | Y |
| O=C(NCc1ccn2ccnc2c1)c1ccc(C2CCN(C(=O)CC3CC3)C2)s1 (stereo not shown) | N |
| O=C(NCc1ccn2ccnc2c1)c1ccc(C2CN(C(=O)c3ccccn3)C2)cc1 | N |
| O=C(NCc1ccn2ccnc2c1)Nc1ccc(OC2CN(C(=O)CC3CCOCC3)C2)cc1 | Y |
